# STUDY SYSTEM: T1, Spy D26A (UniProt P77754 24-161, D26A)
# T1 construct: source: E. coli BL21 (DE3), purified (Ni-NTA, cation exchange, SEC); not shown: His6, N-terminal, cleaved; SUMO, N-terminal, cleaved
# T1 sequence (looked up): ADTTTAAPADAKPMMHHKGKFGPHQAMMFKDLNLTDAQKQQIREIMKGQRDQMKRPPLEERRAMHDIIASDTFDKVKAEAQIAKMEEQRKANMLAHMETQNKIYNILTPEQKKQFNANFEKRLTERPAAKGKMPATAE
# ASSAY NOTES: BLI; Octet RED96; client biotinylated and loaded on streptavidin sensors; Spy or Spy variant in solution at 0.25, 0.5, 1, 1.5 and 2 μM; 40 mM HEPES, 150 mM NaCl, pH 7.5; Kd calculated as koff/kon
# SETUP CONDITIONS: both partners purified

BINDER	RESULT UNIT	Kd
Im7 H40W L53A I54A (natural protein, biotin (EZ-link NHS-biotin, 1:1 molar ratio of biotin to protein), Im7 (colicin E7 immunity protein) with H40W L53A I54A; Spy was made with an N-terminal His6-SUMO tag that was cleaved; also called Im7AAW; partially folded client; source: purified by a similar procedure to Spy) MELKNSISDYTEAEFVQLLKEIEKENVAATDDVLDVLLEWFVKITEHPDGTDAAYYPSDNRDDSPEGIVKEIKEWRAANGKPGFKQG	nM	274
